Values compiled from patent US20210347914A1.

In this section we review reported Kd values for a set of binders.
- experimental-system: T1, Polyhistidine-tagged recombinant human GFAP expressed from E. coli (human, UniProt P14136 1-432)
- T1 construct: also called His-tagged GFAP; not shown: polyhistidine tag
- T1 sequence (P14136 whole entry): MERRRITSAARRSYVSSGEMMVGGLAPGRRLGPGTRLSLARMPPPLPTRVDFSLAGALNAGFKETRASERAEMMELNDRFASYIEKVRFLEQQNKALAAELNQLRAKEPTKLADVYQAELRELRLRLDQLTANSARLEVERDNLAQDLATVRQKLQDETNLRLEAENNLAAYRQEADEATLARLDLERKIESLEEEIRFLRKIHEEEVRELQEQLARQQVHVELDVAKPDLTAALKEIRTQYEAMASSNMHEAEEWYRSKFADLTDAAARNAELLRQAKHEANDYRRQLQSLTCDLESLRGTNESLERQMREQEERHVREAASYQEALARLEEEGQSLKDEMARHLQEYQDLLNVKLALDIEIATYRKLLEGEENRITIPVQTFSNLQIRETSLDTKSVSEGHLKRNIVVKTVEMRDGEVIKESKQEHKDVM
- assay-explanation: BLI (Octet QKe); His-tagged GFAP on anti-Penta-HIS sensor, antibody in solution
Number in nM, nothing else.

Query :: If you can, please state the reported Kd value of GFAP-16 (antibody, V domains shown, also called mouse anti-GFAP antibody GFAP-16) VH: QVQLQQSDAELVKPGASVKISCKASGYTFTDHTIHWVKQRPEQGLEWIGYIYPGDGSTKYNEKFKGKATLTADKSSSTVYMQLNSLTSEDSAVYFCARPAPYWNFDVWGAGTTVTVSS VL: DIQMTQSPSSLSASLGGKVTITCKASQDIKKNIAWYQHKPGKGPRLLIWYTSTLQPGIPSRFSGSGSGRDYSFSISNLEPEDIATYYCLQYDHLRTFGGGTKLEIK .
Result :: 0.273

Query :: If you can, please state the reported Kd value of GFAP-12 (antibody, V domains shown, also called mouse anti-GFAP antibody GFAP-12) VH: QVQLQQSGAELMKPGASVKISCKATGYTFSNYWIEWVKQRPGHGLEWIGEILPGSGSTNYNEKFKGKATFTADTSSNTAYMQLSSLTSEDSAVYYCAIYYGNYAGAMDYWGQGTSVTVSS VL: DIQMTQSPASLSASVGETVTITCRASENIYSYLAWYQQKQGKSPQLLVYNAKTLAEGVPSRFSGSGSGTQFSLKINSLQPEDFGSYYCQLHYGTPYTFGSGTKLEIK .
Result :: 13.3

As a next step, examine the binder that follows.
Query :: If you can, please state the reported Kd value of GFAP-11 (antibody, V domains shown, also called mouse anti-GFAP antibody GFAP-11) VH: QIQLVQSGPELKKPGETVKISCKASGYTFTNYGMNWVKQAPGEGLKWMGWINTNIGEPTYAEEFKGRFAFSLEASASTAYLQINNLKNEDTATYFCARWKNYGYFDYWGQGTTLTVSS VL: QIVLTQSPAIMSASLGERVTMTCTASSSVSSSYLHWYQQKPGSSPKLWIYSTSNLASGVPARFSGSGSGTSYSLTISSLEAEDAATYYCHQYHRSPYTFGGGTKLEIK .
Result :: 0.396
